experimental target: STK32A (human) (UniProt Q8WU08)
Sequence (Q8WU08 whole entry, looked up): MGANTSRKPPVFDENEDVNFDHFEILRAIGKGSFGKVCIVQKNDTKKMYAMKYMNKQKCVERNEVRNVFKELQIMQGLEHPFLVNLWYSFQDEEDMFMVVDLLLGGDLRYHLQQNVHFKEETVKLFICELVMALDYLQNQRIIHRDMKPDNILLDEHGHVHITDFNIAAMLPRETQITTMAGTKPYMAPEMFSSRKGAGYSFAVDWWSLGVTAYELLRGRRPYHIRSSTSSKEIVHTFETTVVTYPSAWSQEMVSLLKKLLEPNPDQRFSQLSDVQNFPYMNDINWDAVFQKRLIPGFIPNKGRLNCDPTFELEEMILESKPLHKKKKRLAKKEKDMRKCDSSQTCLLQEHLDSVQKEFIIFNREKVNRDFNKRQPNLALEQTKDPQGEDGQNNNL
test description: KINOMEscan competition binding
details: compound 10.0 µM
result type: kinase still bound, per cent of control (%)
Give bare numbers, in %.

Examples from the recorded data:
>>> reported("CCc1nc(-c2cccc(C)c2)c(-c2ccnc(NC(=O)c3ccccc3)c2)s1")
9
>>> reported("CC1=C(C(=O)Nc2cc3cn[nH]c3cc2F)C(c2ccc(C(F)(F)F)cc2)CC(=O)N1 (stereo not drawn)")
52
>>> reported("CNC(=O)Nc1ccc(-c2nc(N3CC4CCC(C3)O4)c3cnn(C4CCC5(CC4)OCCO5)c3n2)cc1")
99
>>> reported("COc1cc2c(Nc3ccc(NC(=O)c4ccccc4)cc3)ncnc2cc1OCCCN1CCOCC1")
96
>>> reported("CCN(CCO)CCCOc1ccc2c(Nc3cc(CC(=O)Nc4cccc(F)c4)[nH]n3)ncnc2c1")
100

Please give kinase still bound, per cent of control, item by item, for the list that follows.
1. COc1cc2ncnc(Nc3cccc(Cl)c3)c2cc1OC
2. N#C/C(=C1/Nc2ccccc2S1)c1ccnc(NCCc2cccnc2)n1
3. C=CC(=O)Nc1ccc(C(=O)c2sc(Nc3ccc(N4CCN(C)CC4)cc3OC)nc2N)cc1
4. CCCS(=O)(=O)Nc1ccc(F)c(C(=O)c2c[nH]c3ncc(Cl)cc23)c1F
5. CCN1CCN(Cc2ccc(NC(=O)c3ccc(C)c(/C=C/c4cnc5[nH]ccc5c4OC)c3)cc2C(F)(F)F)CC1
6. N#Cc1cc(-c2ccnc(Nc3ccc(-n4cnc(-c5cccnc5)n4)cc3)n2)cc(N2CCOCC2)c1
7. CC(=O)c1c(C)c2cnc(Nc3ccc(N4CCNCC4)cn3)nc2n(C2CCCC2)c1=O
8. O=c1[nH]c2ccccc2n1C1CCN(Cc2ccc(-c3nc4cc5[nH]cnc5cc4nc3-c3ccccc3)cc2)CC1

63
100
52
85
100
100
87
66

====

experimental target: SRC (human)
test description: KINOMEscan competition binding
details: compound 10.0 µM
result type: kinase still bound, per cent of control (%)
Numbers only, in %.

>>> reported("COc1cc2c(Nc3ccc(NC(=O)c4ccccc4)cc3)ncnc2cc1OCCCN1CCOCC1")
32
>>> reported("CCN1CCN(Cc2ccc(NC(=O)c3ccc(C)c(/C=C/c4cnc5[nH]ccc5c4OC)c3)cc2C(F)(F)F)CC1")
0.15
>>> reported("CCOc1cc(N2CCC(O)CC2)ccc1Nc1ncc2c(n1)N(C)c1ccccc1C(=O)N2C")
100
>>> reported("Cc1cn(-c2cc(C(=O)Nc3ccc(C)c(NC(=O)c4ccno4)c3)cc(C(F)(F)F)c2)cn1")
2.4
>>> reported("COc1ccc(N(C(=O)Oc2cc(C(=O)Nc3cccc(C(F)(F)F)c3)ccc2C)c2ccnc(Nc3ccc(N4CCN(C)CC4)cc3)n2)c(OC)c1")
0.15

Please give kinase still bound, per cent of control, item by item, for the list that follows.
1. C=CC(=O)Nc1ccc(C(=O)c2sc(Nc3ccc(N4CCN(C)CC4)cc3OC)nc2N)cc1
2. CC1=C(C(=O)Nc2cc3cn[nH]c3cc2F)C(c2ccc(C(F)(F)F)cc2)CC(=O)N1 (centres undefined)

1: 100; 2: 83

Please give kinase still bound, per cent of control, item by item, for the list that follows.
1. COc1cc2ncnc(Nc3cccc(Cl)c3)c2cc1OC
2. CC(=O)c1c(C)c2cnc(Nc3ccc(N4CCNCC4)cn3)nc2n(C2CCCC2)c1=O

1. 9.9
2. 93
